The origin of these recorded values is paper PMC8780828.

- SYSTEM NAME: CYP2C8 (Homo sapiens, UniProt P10632)
- Sequence (P10632 whole entry): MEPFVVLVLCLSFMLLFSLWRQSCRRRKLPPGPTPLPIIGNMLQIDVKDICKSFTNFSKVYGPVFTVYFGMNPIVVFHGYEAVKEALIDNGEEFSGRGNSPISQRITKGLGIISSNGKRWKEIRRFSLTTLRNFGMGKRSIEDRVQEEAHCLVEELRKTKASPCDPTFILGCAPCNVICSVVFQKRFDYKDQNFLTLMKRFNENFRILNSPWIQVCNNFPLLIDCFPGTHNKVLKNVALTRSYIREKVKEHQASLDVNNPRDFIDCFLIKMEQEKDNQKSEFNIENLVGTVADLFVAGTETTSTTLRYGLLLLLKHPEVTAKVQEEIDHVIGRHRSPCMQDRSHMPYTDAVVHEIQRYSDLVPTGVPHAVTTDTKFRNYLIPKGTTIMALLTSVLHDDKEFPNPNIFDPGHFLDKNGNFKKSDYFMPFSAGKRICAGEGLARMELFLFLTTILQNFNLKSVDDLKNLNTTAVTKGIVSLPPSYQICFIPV
- ASSAY OVERVIEW: in vitro
- CONDITIONS: microsomes, pH 7.4
QUANTITY NAME: activity at 1.11 µM (%)
A number alone suffices; assume %.

Query: Param item = O=C(O)c1cc(-c2ccc(/C=C3\SC(=S)N(CCc4ccccc4)C3=O)o2)ccc1Cl [NBCoV1] ; retrieve measured activity at 1.11 µM.
Result: 76.9

* * *

- Tested on: pseudovirus NL4-3ΔEnv-NanoLuc/SARS-CoV
- ASSAY OVERVIEW: microbe, parasite or virus in culture
- Assay type: cell-based
- CONDITIONS: Severe acute respiratory syndrome coronavirus, A549-ACE2
QUANTITY NAME: IC50
Please answer in the form of a number followed by its unit of measurement.

Query: Param item = "O=C(O)c1cccc(-c2ccc(/C=C3\SC(=S)N(CCc4ccccc4)C3=O)o2)c1" ; retrieve measured IC50.
Result: 111 nM
